- Tested on: P. berghei-ANKA-GFP-LucCON liver stage parasites in HepG2-A16-CD81EGFP cells
- assay.notes: P. berghei liver stage Pb-Luc assay, Method 1 (UCSD, 1536-well); also: reference of the scale not given here
- Type: cell-based, Plasmodium berghei
- experimental.context: Plasmodium berghei, 48 h, nominal 1 uM (10 mM stock); […] for 15 mM, 1.2 uM for 12 mM, 2 uM for 20 mM stock; average of 2 wells, 1536-well plate; repeat 1; read-out: Pb-Luc signal, 1 uM, repeat 1
# label = class 1 if activity at 1 µM < 90% else class 0

### Prompt For this compound, is activity at 1 µM lower than 90%? COc1ccc(-c2noc(-c3cccn3CC(=O)Nc3ccccc3F)n2)cc1F
### Response class 0

### Prompt Also, COc1cc2c(cc1Oc1cccc(N(C)C)c1)NC(=O)C21CCN(c2cnccn2)CC1 please.
### Response class 1

### Prompt Also, CC1=C(C(=O)Nc2ccc(C)cc2C)C(c2cc(Br)ccc2F)n2ncc(C(=O)Nc3ccc(C)cc3)c2N1 (stereo not shown) please.
### Response class 0

### Prompt Also, COc1ccc(-c2noc(-c3cccn3CC(=O)Nc3ccc(C)cc3Cl)n2)cc1F please.
### Response class 0

### Prompt Also, COc1ccc(-c2cc(=O)oc3c4c(ccc23)OCN(Cc2ccccc2)C4)cc1 please.
### Response class 1

### Prompt Also, COc1cc2c(cc1OCc1ccccc1)N(C(=O)c1cc3ccccc3[nH]1)CC21CCN(C)CC1 please.
### Response class 1

### Prompt Also, Cc1ccc2oc(=O)c3cnn(CC(=O)Nc4cccc(C(F)(F)F)c4)c3c2c1 please.
### Response class 0

### Prompt Also, CC(C)c1ccc(CC(=O)N2CCCc3ncc(C(=O)Nc4cccnc4)cc32)cc1 please.
### Response class 1

### Prompt Also, COc1ccc(-n2nc(C)c([C@@H]3C=C[C@@H](NCc4cccc(Cl)c4)C3)c2C)cc1 please.
### Response class 1

### Prompt Also, Cc1ccc(CN2COc3cc(C)c4c(oc(=O)c5ccccc54)c3C2)cc1 please.
### Response class 0

### Prompt Also, COc1ccc(OC)c(NC(=O)c2ccc3c(c2)N([S+](=O)([O-])c2ccccc2)CC3)c1 please.
### Response class 0

### Prompt Also, Cc1ccc(C)c(Cn2c(=O)n(CCCCC(=O)NCc3ccc4c(c3)OCO4)c(=O)c3ccccc32)c1 please.
### Response class 1

### Prompt Also, CCC(=O)N1CCc2cc(Br)cc([S+](=O)([O-])N3CCCC(C(=O)Nc4ccc(OC)c(Cl)c4)C3)c21 (stereo not shown) please.
### Response class 1

### Prompt Also, Cn1nnnc1SCCCNCc1cccc(OCc2ccccc2)c1 please.
### Response class 1

---

Consider the following compounds; for each one, report its CC50 at 48 h.
- assay.notes: in vitro
- experimental.context: human, hepg2 cells
Please make sure the unit comes right after the number.

### Prompt Which value of CC50 at 48 h has been reported for N=c1ccn(Cc2cccc(Cl)c2)cc1 [MLS000080111-01] in the records?
### Response 34.3 µM

### Prompt Also, COc1cc2c(Nc3ccc(Br)cc3F)ncnc2cc1OCC1CCN(C)CC1 [NCGC00167513-01] please.
### Response 27.3 µM

### Prompt Also, CC(C)C[C@@H]1N[C@H](C(=O)NC(C)C)Cc2cn(Cc3ccncc3)c3cccc1c23 [NCGC00395386-01] please.
### Response 44.4 µM

### Prompt Also, CC(C)(C)c1ccc(NC(=O)OC[C@H]2C[C@@H]3CCN2C[C@@H]3c2cc(C3CCCC3)nc(-c3ccncc3)n2)cc1 [NCGC00391636-01] please.
### Response 43.2 µM

### Prompt Also, CCCCOc1ccc(-c2nc(C3CC(=O)N(C4CCCCC4)C3)no2)cc1 (centres unmarked) [NCGC00448051-01] please.
### Response 34.3 µM

---

- Test system: HepG2-A16-CD81EGFP cells
Consider the following molecules; for each one, report its HepG2 viability signal, 3 uM, repeat 2.
Quick reminder: number only, in %, skip the unit.

### Prompt Kindly state the measured HepG2 viability signal, 3 uM, repeat 2 obtained for Cc1ccccc1[S+](=O)([O-])N1CCCC(CCC(=O)NCCN(C)C2CCCCC2)C1 (centres unmarked) with HepG2-A16-CD81EGFP cells.
### Response 103.93

### Prompt Also, CCC(=O)N1CCc2cc(Br)cc([S+](=O)([O-])N3CCCC(C(=O)Nc4ccc(OC)c(Cl)c4)C3)c21 (centres unmarked) please.
### Response 86.54

### Prompt Also, O=C(CCCCCCC(=O)Nc1ccccc1)NO please.
### Response 48.65

### Prompt Also, COc1ccc(OC)c(NC(=O)c2ccc3c(c2)N([S+](=O)([O-])c2ccccc2)CC3)c1 please.
### Response 97.67

### Prompt Also, CCCN1C(CC(C)C)=N[S+](=O)([O-])c2cc(NC(=O)c3ccco3)ccc21 please.
### Response 102.75

---

- Tested on: HepG2-A16-CD81EGFP cells
- experimental.context: nominal 3 uM (10 mM stock); 4.5 uM for 15 mM, 3.6 uM for 12 mM, 6 uM for 20 mM stock; average of 2 wells; repeat 2
Consider the following compounds; for each one, report its HepG2 viability signal, 3 uM, repeat 2.
Quick reminder: number only, in %, skip the unit.

### Prompt Which value of HepG2 viability signal, 3 uM, repeat 2 has been reported for CCN1CCN(Cc2c(O)ccc3c(=O)c(Oc4ccccc4Cl)c(C(F)(F)F)oc23)CC1 in the records?
### Response 97.39

### Prompt Also, COc1cc(C(=O)NC2CCCc3c2[nH]c2c(Cl)cccc32)cc(OC)c1OC (centres unmarked) please.
### Response 98.35

### Prompt Also, CCCOC(=O)c1c(NC(=O)C(C)Sc2nc(-c3ccccc3)cc(C(F)(F)F)n2)sc(C(=O)N(C)C)c1C (centres unmarked) please.
### Response 103.13

### Prompt Also, COc1ccc(Nc2cnc3ccc(-c4ccc(OC)c(OC)c4)nn23)cc1 please.
### Response 112.23

### Prompt Also, Cc1ccc([S+](=O)([O-])N2CCC(OC3CCN(Cc4ccccc4)CC3)CC2)c(C)c1 please.
### Response 100.76

### Prompt Also, COc1ccccc1NC(=O)Cn1cccc1-c1nc(-c2ccc(F)cc2)no1 please.
### Response 104.77

### Prompt Also, Cc1cc(C)cc(C(=O)Nc2ccc3c(N4CCCC4)ncnc3c2)c1 please.
### Response 36.60

### Prompt Also, COc1cccc(CN2CCC(Oc3ccc(-c4noc(C5CC5)n4)cc3)C2)c1 (centres unmarked) please.
### Response 94.86

---

- Test system: P. falciparum Dd2 Cytb F123L
- assay.notes: SYBR Green ABS proliferation assay, NCGC00473217 selected clone G08
- Assay type: cell-based, Plasmodium falciparum
- experimental.context: Plasmodium falciparum, DD2, cytochrome b mutant line, fifth value triple, c15; […]; read-out: log AC50, mean (converted)
measured.attribute: AC50 (µM)
Quick reminder: number only, in µM, skip the unit.

### Prompt Which value of AC50 has been reported for CCc1nc2c(c(-c3ccc(Cl)cc3)n1)CCN(Cc1ccc(NC(C)=O)cc1)CC2 [NCGC00476919-01] in the records?
### Response 2.03

### Prompt Also, COc1ccc(-c2nc(C3CC3)nc3c2CCN(C(=O)c2ccc(C(F)(F)F)cc2)CC3)cc1 [NCGC00374638-01] please.
### Response 10.6

### Prompt Also, CCCN1C(c2ccccc2)=NS(=O)(=O)c2cc(NC(=O)c3ccc(F)cc3)ccc21 [NCGC00532331-01] please.
### Response 3.3

### Prompt Also, O=c1[nH]c(N2CCOCC2)nc2c1CCN(Cc1ccc(Cl)c(F)c1)CC2 [NCGC00440655-01] please.
### Response 4.55

### Prompt Also, COc1ccc(CN2CCc3nc(C4CC4)nc(-c4ccc(O)cc4)c3CC2)cc1 [NCGC00480355-01] please.
### Response 12.3

### Prompt Also, CCc1nc2c(c(-c3ccc(O)cc3)n1)CCN(Cc1ccc(OC)cc1)CC2 [NCGC00480297-01] please.
### Response 5.31

### Prompt Also, CCc1nc2c(c(-c3ccc(O)cc3)n1)CCN(Cc1ccc(OC(F)(F)F)cc1)CC2 [NCGC00480301-01] please.
### Response 7.78

### Prompt Also, CC(C)(C)OC(=O)N1CCc2nc(C3CC3)nc(O)c2CC1 [NCGC00510066-01] please.
### Response 2.99

---

Consider the following compounds; for each one, report its Average HepG2 3 µM response( %).
- System: HepG2-A16-CD81EGFP cells
- experimental.context: HepG2; the header list (r10) describes it as the 1 µM dose, averaged response (percent)

### Prompt Which value of Average HepG2 3 µM response( %) has been reported for Cc1ccc2oc(=O)c3cnn(CC(=O)Nc4cccc(C(F)(F)F)c4)c3c2c1 in the records?
### Response 97%

### Prompt Also, COc1cc2c(cc1Oc1cccc(N(C)C)c1)NC(=O)C21CCN(c2cnccn2)CC1 please.
### Response 98%

### Prompt Also, O=c1[nH]c(N2CCOCC2)nc2c1CCN(Cc1ccc(Cl)cc1F)CC2 please.
### Response 102%

### Prompt Also, Cc1cc(C)n(Cc2ccc(C(=O)N3CCC(c4noc(-c5cccnc5)n4)C3)o2)n1 (centres unmarked) please.
### Response 103%

### Prompt Also, CCCCCC(=O)O[C@]1(C(C)=O)CC[C@H]2[C@@H]3CCC4=CC(=O)CC[C@]4(C)[C@H]3CC[C@@]21C please.
### Response 104%

### Prompt Also, COc1ccc(N2CCN(c3cc(C4CC(N)C4)nc(N)n3)CC2(C)C)cc1 (centres unmarked) please.
### Response 102%

### Prompt Also, Cc1ccccc1NC(=O)Nc1ccc2nc(N3CCN(C)CC3)cc(C)c2c1 please.
### Response 104%

### Prompt Also, CCOc1ccc(Nc2nc(NCC3CCCO3)c3ccccc3n2)cc1 (centres unmarked) please.
### Response 102%
